Target: T1, His-tagged cynomolgus TIGIT (cynomolgus, UniProt A0A7N9I9V4 89-209)
T1 construct: SPR analyte; also called cynomolgus TIGIT protein; not shown: His tag
T1 sequence (A0A7N9I9V4 entry or part of it): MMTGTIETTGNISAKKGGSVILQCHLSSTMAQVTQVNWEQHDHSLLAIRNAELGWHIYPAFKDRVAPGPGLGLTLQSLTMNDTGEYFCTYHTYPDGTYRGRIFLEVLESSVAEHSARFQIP
Assay: SPR (Biacore T200), antibody captured, His-tagged TIGIT analyte
parameter-measured: kon (M⁻¹ s⁻¹)
Answers are plain numbers, in M⁻¹ s⁻¹.

The cases that follow already have their kon on record.
{"binder": "huTIGIT-3-1 (antibody, human IgG1, kappa, V domains shown, Humanized IgG; also called 3VH3.M4 + 3VL4.M6) VH: EVQLVESGGGLVQPGGSLRLSCAASGFTFSSYGMSWVRQAPGKGLELVATIKSSGGSTNLADSVKGRFTISRDNSKNTLYLQMNSLRAEDTAVYYCVRGYFDYWGQGTTVTVSS VL: DIQMTQSPSSLSASVGDRVTITCRASQDIKTALAWYQQKPGKSPKLLIYWASTRQSGVPSRFSGSGSGTDFTLTISSLQPEDVATYYCQQYYSTPYTFGGGTKVEIKR", "unit-text": "M⁻¹ s⁻¹", "kon": 120000}
{"binder": "huTIGIT-19-2 (antibody, human IgG1, kappa, V domains shown, Humanized IgG; also called 19VH4.M9 + 19VL1.M7) VH: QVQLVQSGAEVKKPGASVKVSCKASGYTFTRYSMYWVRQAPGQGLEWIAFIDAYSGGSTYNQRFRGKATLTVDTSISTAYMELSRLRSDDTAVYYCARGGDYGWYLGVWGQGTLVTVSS VL: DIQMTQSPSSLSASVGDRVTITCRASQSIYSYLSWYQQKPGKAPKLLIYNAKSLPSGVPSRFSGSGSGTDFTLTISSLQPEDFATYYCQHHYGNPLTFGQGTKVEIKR", "unit-text": "M⁻¹ s⁻¹", "kon": 950000}

Turning now to a further binder:
Looking for the measured kon of TIGIT-19 chimeric antibody (antibody, human IgG1, kappa, V domains shown, also called 19VH + 19VL) VH: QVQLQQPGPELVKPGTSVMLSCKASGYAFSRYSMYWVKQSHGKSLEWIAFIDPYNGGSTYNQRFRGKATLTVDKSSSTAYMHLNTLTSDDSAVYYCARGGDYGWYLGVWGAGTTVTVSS VL: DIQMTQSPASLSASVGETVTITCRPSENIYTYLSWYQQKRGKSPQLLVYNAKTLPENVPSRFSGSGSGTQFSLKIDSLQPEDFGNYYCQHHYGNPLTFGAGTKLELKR , can you help?
1e+06
